# TARGET OR TEST SYSTEM: Glucocorticoid receptor (Homo sapiens) (UniProt P04150)
# Sequence (P04150 whole entry, looked up): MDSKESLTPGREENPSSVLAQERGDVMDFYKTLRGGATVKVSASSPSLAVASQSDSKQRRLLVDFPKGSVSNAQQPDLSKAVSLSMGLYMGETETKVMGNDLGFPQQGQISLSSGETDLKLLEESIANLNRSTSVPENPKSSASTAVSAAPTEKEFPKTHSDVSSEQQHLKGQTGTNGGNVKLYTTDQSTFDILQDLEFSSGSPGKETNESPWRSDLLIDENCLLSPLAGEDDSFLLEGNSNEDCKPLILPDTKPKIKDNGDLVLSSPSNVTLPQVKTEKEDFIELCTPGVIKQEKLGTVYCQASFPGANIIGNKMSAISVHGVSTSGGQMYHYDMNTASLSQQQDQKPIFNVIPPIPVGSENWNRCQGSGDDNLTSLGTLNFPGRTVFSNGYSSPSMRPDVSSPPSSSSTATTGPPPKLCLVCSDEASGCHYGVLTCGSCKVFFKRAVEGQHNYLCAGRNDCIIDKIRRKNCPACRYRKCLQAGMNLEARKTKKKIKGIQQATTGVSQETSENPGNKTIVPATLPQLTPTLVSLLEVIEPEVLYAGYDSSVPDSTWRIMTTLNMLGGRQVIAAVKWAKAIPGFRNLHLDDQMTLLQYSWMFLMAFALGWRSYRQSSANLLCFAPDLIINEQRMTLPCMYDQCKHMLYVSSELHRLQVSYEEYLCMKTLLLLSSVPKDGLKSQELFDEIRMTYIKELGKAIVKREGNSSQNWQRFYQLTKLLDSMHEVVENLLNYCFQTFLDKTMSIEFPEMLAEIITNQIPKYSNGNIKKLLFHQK
# ASSAY: GR-GFP Redistribution (AID 450); further: potency means the concentration at half of the fitted maximal effect
# CONDITION NOTES: U2OS GR-GFP nuclear translocation, laser cytometry, 2 h
Activity calls are given as the source filed them.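 How the source made its calls: active means compounds whose dose series gives a full or clear partial fitted curve of increased nuclear translocation; inconclusive means weak partial curve or effect only at the top dose; inactive means no dose-dependent translocation response.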
Hi there, I'd appreciate the recorded Potency for every entry that follows.

Data request: Query for Glucocorticoid receptor (Homo sapiens) (UniProt P04150): what Potency does the record show for COc1ccccc1CNc1nc(-c2cccc(C#N)c2)nc2ccccc12 ?
Data returned: > 46 µM (inactive)

Data request: Query for Glucocorticoid receptor (Homo sapiens) (UniProt P04150): what Potency does the record show for CN1CCN(c2ncc3nc(-c4ccccc4)c(=O)n(C4CC4)c3n2)CC1 ?
Data returned: > 9.22 µM (inactive)

Data request: Query for Glucocorticoid receptor (Homo sapiens) (UniProt P04150): what Potency does the record show for NC(N)=NC[C@@H]1COC2(CCCCC2)O1 ?
Data returned: > 20.6 µM (inactive)

Data request: Query for Glucocorticoid receptor (Homo sapiens) (UniProt P04150): what Potency does the record show for COc1ccc(-n2c(=O)c(-c3cccs3)nc3cnc(N4CCNCC4)nc32)cc1 ?
Data returned: > 9.22 µM (inactive)

Data request: Query for Glucocorticoid receptor (Homo sapiens) (UniProt P04150): what Potency does the record show for COc1cccc(-c2cc(NCc3ccccc3)ncn2)c1 ?
Data returned: > 46 µM (inactive)

Data request: Query for Glucocorticoid receptor (Homo sapiens) (UniProt P04150): what Potency does the record show for COc1cccc(Cn2c(=O)c(-c3cc(F)cc(F)c3)nc3cncnc32)c1 ?
Data returned: > 9.22 µM (inactive)

Data request: Query for Glucocorticoid receptor (Homo sapiens) (UniProt P04150): what Potency does the record show for CCCNC(=O)N1N=C(c2ccc(N)cc2)c2cc3c(cc2[C@H]1C)OCO3 ?
Data returned: > 46 µM (inactive)

Data request: Query for Glucocorticoid receptor (Homo sapiens) (UniProt P04150): what Potency does the record show for CN(C)C(=O)c1ccc(-c2cncnc2Nc2ccc(F)cc2)cc1 ?
Data returned: > 46 µM (inactive)

Data request: Query for Glucocorticoid receptor (Homo sapiens) (UniProt P04150): what Potency does the record show for O=c1c(-c2ccc(Cl)cc2)nc2cncnc2n1Cc1ccccc1Cl ?
Data returned: > 9.22 µM (inactive)

Data request: Query for Glucocorticoid receptor (Homo sapiens) (UniProt P04150): what Potency does the record show for N#Cc1cccc(-c2nc(NCc3cccs3)c3ccccc3n2)c1 ?
Data returned: > 46 µM (inactive)

====

# TARGET OR TEST SYSTEM: Cytochrome P450 2C19 (Homo sapiens)
# ASSAY: qHTS Assay for Inhibitors and Substrates of Cytochrome P450 2C19 (AID 899); further: nearly all actives have a fitted effect of over 60% in size
# CONDITION NOTES: recombinant CYP2C19, luciferin-H EGE luminescence; series mostly up to 57.1 µM
# Procedure: NIH Molecular Libraries Screening Centers Network [MLSCN] NIH Chemical Genomics Center [NCGC] The P450 gene superfamily is involved in the metabolism and clearance of xenobiotics. […] The luciferin is then measured by luminescence after the addition of a luciferase detection reagent. […] Inhibitors and some substrates limit the production of luciferin, and decrease measured luminescence. […]
Records with an inconclusive call do not appear. Calls of active or inactive are those of the source. Calls follow the shape of the dose curve; as a rule, active = well fitted inhibition curve with a large enough effect; inconclusive = small, poorly fitted or top-dose-only effect; inactive = no such curve, though single readings can be large or run the other way.
Please state which outcome applies, choosing from active, inactive

Data request: For N#Cc1cccc(-c2cncnc2NCc2ccccc2)c1 , which call appears in the assay record?
Data returned: active

Data request: For N#Cc1cccc(-c2nc(NCc3ccccc3)c3ccccc3n2)c1 , which call appears in the assay record?
Data returned: active

Data request: For COc1ccc2[nH]cc(CCNc3ccnc(-c4ccc5c(c4)OCO5)n3)c2c1 , which call appears in the assay record?
Data returned: active

Data request: For c1ccc(Nc2ncnc3ccc(-c4ccoc4)cc23)cc1 , which call appears in the assay record?
Data returned: active

Data request: For COc1c(-c2ccc(O)c(O)c2)oc2cc(O)cc(O)c2c1=O , which call appears in the assay record?
Data returned: inactive

Data request: For COc1ccc(CNc2ncncc2-c2ccccc2C(F)(F)F)c(OC)c1 , which call appears in the assay record?
Data returned: active

Data request: For O=S(=O)(c1ccccc1)N1CCC[C@@]2(CCN(Cc3nccs3)C2)C1 , which call appears in the assay record?
Data returned: active

Data request: For C[C@@](N)(Cc1ccc(O)c(O)c1)C(=O)O , which call appears in the assay record?
Data returned: inactive

Data request: For O=c1c(-c2cccs2)nc2cncnc2n1-c1ccccc1 , which call appears in the assay record?
Data returned: active

Data request: For CN(Cc1ccco1)c1nc(-c2ccc3c(c2)OCO3)nc2ccccc12 , which call appears in the assay record?
Data returned: active

Data request: For COc1ccc(CNc2ccnc(-c3cccnc3)n2)c(OC)c1 , which call appears in the assay record?
Data returned: active

Data request: For c1ccc(Nc2ncncc2-c2ccc3c(c2)OCO3)cc1 , which call appears in the assay record?
Data returned: active

Data request: For COc1cccc(Cn2c(=O)c(-c3cccs3)nc3cncnc32)c1 , which call appears in the assay record?
Data returned: active

Data request: For CN(C)c1ccc(-c2nc(-n3ccnc3)c3ccccc3n2)cc1 , which call appears in the assay record?
Data returned: active

Data request: For Cc1cccc(CNc2cc(-c3ccc(N(C)C)cc3)ncn2)c1 , which call appears in the assay record?
Data returned: active

Data request: For Cn1cccc1C(=O)N1CCC2(CC1)CN(c1ccncc1)C2 , which call appears in the assay record?
Data returned: active

Data request: For COc1ccccc1CNc1ncnc2ccc(-c3ccccc3C#N)cc12 , which call appears in the assay record?
Data returned: active

Data request: For Cc1cccc(CNc2ncnc3ccc(-c4c(C)noc4C)cc23)c1 , which call appears in the assay record?
Data returned: active

Data request: For COc1cccc(-c2nc(NCc3cccs3)c3ccccc3n2)c1 , which call appears in the assay record?
Data returned: active

Data request: For Cc1cnc(CNc2ncncc2-c2ccccc2C)cn1 , which call appears in the assay record?
Data returned: active

Data request: For COCC(=O)N1CCC2(CC1)CN(C(=O)Nc1ccccc1)C2 , which call appears in the assay record?
Data returned: active

Data request: For COc1cc(/C=C\c2ccc(OC)cc2OC)cc(OC)c1 , which call appears in the assay record?
Data returned: inactive

Data request: For c1ccc2c(Nc3ccncc3)nc(-c3ccc4c(c3)OCO4)nc2c1 , which call appears in the assay record?
Data returned: active

Data request: For COc1cc2c3cc1Oc1c(OC)c(OC)cc4c1[C@@H](Cc1ccc(O)c(c1)Oc1ccc(cc1)C[C@@H]3N(C)CC2)N(C)CC4 , which call appears in the assay record?
Data returned: inactive

Data request: For Cc1noc(C)c1-c1nccc(Nc2ccc(F)cc2)n1 , which call appears in the assay record?
Data returned: active

Data request: For COc1ccccc1CNc1ncnc2ccc(-c3ccccc3OC)cc12 , which call appears in the assay record?
Data returned: active

Data request: For COCCNc1ncnc2ccc(-c3ccccc3C(F)(F)F)cc12 , which call appears in the assay record?
Data returned: active

Data request: For O=c1c(-c2cccc(F)c2)nc2cncnc2n1Cc1ccccc1Cl , which call appears in the assay record?
Data returned: active

Data request: For N#Cc1ccc(CN2CCCC3(CCN(C(=O)c4ccncc4)CC3)C2)cc1 , which call appears in the assay record?
Data returned: inactive

Data request: For Cc1ccccc1-c1cncnc1NCc1cccnc1 , which call appears in the assay record?
Data returned: active

Data request: For COc1c2ccoc2nc2c(OC)c(OC[C@H](O)C(C)(C)O)ccc12 , which call appears in the assay record?
Data returned: inactive

Data request: For CC(=O)NCCNc1ncnc2ccc(-c3ccc4c(c3)OCO4)cc12 , which call appears in the assay record?
Data returned: active

Data request: For Clc1ccccc1-c1nccc(NCCN2CCOCC2)n1 , which call appears in the assay record?
Data returned: active

Data request: For CN(C)c1ncc2nc(CCc3ccccc3)c(=O)n(Cc3ccc(F)cc3)c2n1 , which call appears in the assay record?
Data returned: active

Data request: For CN(Cc1ccco1)c1ncnc2ccc(-c3ccc4c(c3)OCO4)cc12 , which call appears in the assay record?
Data returned: active

Data request: For O=S(=O)(c1ccccc1)N1CCC2(CCCN(c3ccccn3)C2)CC1 , which call appears in the assay record?
Data returned: active

Data request: For Cc1ccccc1-c1ccc2ncnc(NCc3cccnc3)c2c1 , which call appears in the assay record?
Data returned: active

Data request: For COc1ccccc1-c1ccc2ncnc(N(C)C)c2c1 , which call appears in the assay record?
Data returned: active

Data request: For O=C(c1cccc(F)c1)N1CCC2(CCCN(c3ccccc3)C2)CC1 , which call appears in the assay record?
Data returned: active

Data request: For Cc1nc2cnc(N(C)C)nc2n(CCc2ccccc2)c1=O , which call appears in the assay record?
Data returned: active
